# Experiment Summary: physchem
# Condition Set: minimal medium, phosphate buffer, pH 7

{"Compound": "CC(=O)OCN(C)N=O", "half-life (h)": 30.4}
{"Compound": "CCOS(C)(=O)=O [EMS, ethyl-methane-sulfonate]", "half-life (h)": 13.8}
{"Compound": "CN(N=O)C(N)=O", "half-life (h)": 0.599}

----------
# Experiment Summary: physchem
# Condition Set: agar, .tau.1/2 Parametrically

{"Smiles String": "CC(=O)OCN(C)N=O", "half-life (h)": 34.1}

----------
# Experiment Summary: Diffusion bioassay for mutagenicity with microsomal activation (procarcinogens)
# Condition Set: agar plates

{"Smiles String": "O=NN1CCOCC1", "half-life / h": 6}
{"Smiles String": "O=NN1CCCC1", "half-life / h": 5.1}
